Exercise: state measured OD450 nm for each of the binders provided.
biological target: T1, human EGFRvIII-hFc protein (human, UniProt P00533 25-645); experiment: ELISA, coated EGFRvIII-hFc, antibody 0.01 nM
T1 construct: extracellular domain; made in HEK293 cells, purified on protein A; also called immunogen A; hFc-tagged EGFRvIII protein; not shown: human IgG Fc fragment (hFc) of the pCpC vector
Answers are plain numbers.

{"columns": ["Binder", "OD450 nm"],
 "data": [
  ["Murine anti-7E5 (antibody, V domains shown, murine hybridoma antibody; also called 7E5-2A9; murine anti-7E5-2) VH: EIQLQQSGPELVKPGASVKVSCKASGYSFTDYNMYWVKQSHGKSLEWIGYVDPSNGGTNYNQKFKGKATLTVDKSSSTAFMHLNSLTSEDSAVYYCARGFFDYWGQGTTLTVSS VL: DIVMTQSPSSLTVTAGEKVTMSCKSSQSLLNSGNQKNYLTWYQQKPGQPPKLLIYWASNRESGVPDRFTGSGSGKDFTLTISSVQAEDLAVYYCQNDYRYPVTFGAGTKLELK", 0.35],
  ["Murine anti-63A10 (antibody, V domains shown, murine hybridoma antibody; also called 63A10A7) VH: QVQLQQSGAELARPGASVKMSCKASGYTFISFTMHWVKQRPGQGLEWIGYINPNSGYTKYNQKFKDKATLTAGQSSSTAYMQLSSLTSEDSAVYYCTRGGGRGFAYWGQGTLVTVSA VL: DILMTQSPSSMSVSLGDTVTITCHASQDINSNIGWLQQKPGKSFKALIYHGTNLEDGVPSRFSGSGSGADYSLTISSLESEDFADYYCVQYAQFPFTFGSGTKLEIK", 0.17],
  ["Murine anti-64B11 (antibody, V domains shown, murine hybridoma antibody; also called 64B11F2) VH: EVQLQQSGAELVKPGASVKLSCTASGFNIKDYYMHWVKQRTEQGLEWIGRIDPEDGETKYAPKFQGKATITADTSSNTAYLQLSNLPSEDTAVYYCGCRTGGFAYWGQGTLVTVSA VL: DILMTQSPSSMSVSLGDTVSITCHASQGINSNIGWLQQKPGKSFKALIYHGTNLEDGVPSRFSGSGSGADYSLTISSLESEDFADYYCVQYAQFPFTFGSGTELEIK", 0.09],
  ["Murine anti-75G7 (antibody, V domains shown, murine hybridoma antibody; also called 75G7C6) VH: EVQLQQSGPELVKPGASVKIPCKASGYTFTDYNMDWVKQSHGKSLEWIGDINPNNGDTIYNQKFKGKATLTVDKSSSTAYMELRSLTSEDTAVYYCARGDYDGYYPVYYAMDYWGQGTSVTVSS VL: ENVLTQSPAIMSASPGEKVTMTCRASSSVSSSYLHWYQQKSGASPKLWIFSTSNLAAGVPARFSGSGSGTSYSLTVSSVEAEDAATYYCQQYSGYPLTFGAGTKLELK", 0.06]
]}

Here is the next item to consider.
Problem: Given Murine anti-43H6 (antibody, V domains shown, murine hybridoma antibody; also called 43H6A1) VH: INAEYAGGPGLVKPSQSLSLTCTVTDYSITSDYAWNWIRQFPGNKLEWMGYISYSGNTNYNPSLKSRISITRDTSKNQFFLQLNSVTTEDTATYYCARLGRGFAYWGQGTLVTVSA VL: DILMTQSPSSMSVSLGDTVSITCHASQDINSNIGWLQQKPGTSFKGLIYHGRNLEDGVPSRFSGSGSGEDYSLTISSLESEDFADYYCVQYAHFPPTFGAGTKLELK , state its recorded OD450 nm.
Result: 0.25
